These entries and their values trace back to PubChem BioAssay (NCI).

experiment: NCI Yeast Anticancer Drug Screen. Data for the rad50EPP+ strain (AID 151);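 further: 0% = growth of vehicle-treated control cultures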; conditions: S. cerevisiae rad50 mutant strain, at 33.0 µM, active compounds read high
The panel holds about 79,000 compounds, 15% with a hit somewhere; the sample as a whole holds those more often.
property-measured: growth inhibition (%)
Give just the number in %; leave the unit off.

Note to self: growth inhibition recorded for Cc1ccc(S(=O)(=O)Nc2ccc3c(c2)C(O)c2ccccc2-3)cc1 (stereo unspecified) was 38

Note to self: growth inhibition recorded for O=C(Nc1ccc2c(c1)Cc1c-2ccc([N+](=O)[O-])c1F)C(F)(F)F was 11

Note to self: growth inhibition recorded for O=C(N/N=C\c1c(Cl)cccc1Cl)N/N=C/c1c(Cl)cccc1Cl was 2

Note to self: growth inhibition recorded for CN(C)Cc1cccc(CN(C)C)[c]1[Sn]([Br])([c]1ccccc1)[c]1ccccc1 was 36

Note to self: growth inhibition recorded for CCC(C)(c1ccc(O)c(C)c1)c1ccc(O)c(C)c1 was -41

Note to self: growth inhibition recorded for COCCCN(Cc1cc(OC)c(OC)c(OC)c1)C(=S)Nc1cccc(Cl)c1 was -6

Note to self: growth inhibition recorded for CO[C@@]12[C@H](COC(N)=O)C3=C(C(=O)C(C)=C(N)C3=O)N1C[C@@H]1N[C@@H]12 was 63

Note to self: growth inhibition recorded for O=S(=O)(c1cc(Cl)ccc1O)c1cc(Cl)ccc1O was 14

Note to self: growth inhibition recorded for CN(C)c1ccc(/C=C/c2ccnc3ccccc23)cc1N was 29

Note to self: growth inhibition recorded for S=c1[nH]nc(-c2ccc(Cl)cc2)s1 was 31

Note to self: growth inhibition recorded for OB(O)c1ccccc1C#Cc1ccccc1B(O)O was 69

====

For each of the molecules below, state its growth inhibition.
assay: NCI Yeast Anticancer Drug Screen. Data for the mec2-1 strain (AID 157); details: S. cerevisiae mec2-1 strain, at 5.0 µM (retest, dose inferred, filed as 0.5), active compounds read high
This is part of a sample that, as a whole, favours compounds with a hit. Of some 79,000 tested, about 15% had one in any assay.
Give just the number in %; leave the unit off.

Note to self: growth inhibition recorded for Clc1cc(Cc2ccc(N=C/C=C/c3ccccc3)c(Cl)c2)ccc1N=C/C=C\c1ccccc1 was 100

Note to self: growth inhibition recorded for COCCCN(Cc1cc(OC)c(OC)c(OC)c1)C(=S)Nc1cccc(Cl)c1 was 51

Note to self: growth inhibition recorded for Oc1ccccc1N=Cc1ccc(Cl)cc1 was -23

Note to self: growth inhibition recorded for CC(C)(O)c1ccccc1C(c1ccccc1)c1ccccc1 was -5

Note to self: growth inhibition recorded for COc1cc(N)ccc1Nc1c2ccccc2nc2ccccc12 was 20

Note to self: growth inhibition recorded for O=C1C=CC(=Nc2ccccc2)c2ccccc21 was 22

Note to self: growth inhibition recorded for CCCCCC(=O)c1ccc(O)cc1O was 91

Note to self: growth inhibition recorded for O=C1C=CC(=O)N1c1ccc(I)cc1 was 31

Note to self: growth inhibition recorded for Cc1cc(Cl)ccc1NC(=O)/C(Cl)=C1/Sc2ccccc2NC1=O was 24

Note to self: growth inhibition recorded for Cc1ccccc1NC(=O)Cc1csc(N/N=C2\NC(=O)/C(=C/c3cccc([N+](=O)[O-])c3)S2)n1 was 8

Note to self: growth inhibition recorded for Nc1nc(N)c2cc(Sc3ccc4ccccc4c3)ccc2n1 was 79

Note to self: growth inhibition recorded for CCCCCCCCCCCc1nc(N)n[nH]1 was -48

====

For each of the compounds below, state its growth inhibition.
assay: NCI Yeast Anticancer Drug Screen. Data for the rad50 strain (AID 155);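 further: 0% = growth of vehicle-only cultures of the same strain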; conditions: S. cerevisiae rad50 strain growth inhibition; at 3.7 µM; active compounds read high
About 79,000 compounds went through this panel and 15% of them were active in at least one assay; those are over-represented in the sample as a whole.
Give just the number in %; leave the unit off.

Note to self: growth inhibition recorded for CCCc1[nH]nc(C(N)=O)c1N=NN(C)C was 4

Note to self: growth inhibition recorded for N#CSC1CCCCNC1=O (stereo not drawn) was 3

Note to self: growth inhibition recorded for NNC(=S)Nc1cccc(Cl)c1 was -36

Note to self: growth inhibition recorded for S=c1[nH]nc(-c2ccc(Cl)cc2)s1 was -7

Note to self: growth inhibition recorded for CCCCCCCCCCCc1nc(N)n[nH]1 was -13

Note to self: growth inhibition recorded for O=C(O)c1[nH]c(=O)c2ccccc2c1Nc1ccccc1 was -1

Note to self: growth inhibition recorded for CCn1ncc(N=O)c1N was -1

Note to self: growth inhibition recorded for CCOC(=O)c1csc(Br)n1 was 1

Note to self: growth inhibition recorded for O=C(/C=N/O)Nc1cc(Cl)c(Cl)cc1Cl was -21

Note to self: growth inhibition recorded for Cc1onc(-c2ccccc2Cl)c1C1=N/C(=C/c2cc(Cl)cc(Cl)c2O)C(=O)O1 was -32

Note to self: growth inhibition recorded for COc1ccc(N=N/C(=N\NC(=O)c2cc(Br)ccc2O)c2ccc(N(CCC#N)CCC#N)cc2OC)cc1 was 43

Note to self: growth inhibition recorded for Nc1nc(F)nc2c1ncn2C1OC(COP(=O)(O)O)C(O)C1O (stereo not drawn) was 9

Note to self: growth inhibition recorded for NNC(=S)Nc1cccc2ccccc12 was -26

====

test: NCI Yeast Anticancer Drug Screen. Data for the mlh1 rad18 strain (AID 175); conditions: S. cerevisiae mlh1 rad18 strain growth inhibition; at 5.0 µM (retest, dose inferred, filed as 0.5); active compounds read high
This is part of a sample that, as a whole, favours compounds with a hit. Of some 79,000 tested, about 15% had one in any assay.
Binary classification by growth inhibition, with 30% as an inclusive lower bound for satisfied; all other cases are not satisfied.

Inquiry: Check if growth inhibition >= 30% (inclusive). Item: COc1ccc2oc(-c3ccc(Cl)cc3)c(N3CCN(C)CC3)c2c1
Reply text: satisfied

Inquiry: Check if growth inhibition >= 30% (inclusive). Item: CCN(CC)N=Nc1c(C(N)=O)n[nH]c1C
Reply text: not satisfied

Inquiry: Check if growth inhibition >= 30% (inclusive). Item: COc1cc2c(cc1C[N+](C)(C)CSc1ccccc1)-c1ccccc1CC2
Reply text: not satisfied

Inquiry: Check if growth inhibition >= 30% (inclusive). Item: OCCNCCOc1ccc(/C(=C(/Cl)c2ccccc2)c2ccccc2)cc1
Reply text: satisfied

Inquiry: Check if growth inhibition >= 30% (inclusive). Item: COc1ccc(/C=C(\NC(=O)c2ccccc2)C(=O)NN(C)c2ccnc3cc(Cl)ccc23)cc1OC
Reply text: not satisfied

Inquiry: Check if growth inhibition >= 30% (inclusive). Item: Clc1cc(-c2ccccc2)nc2ccccc12
Reply text: satisfied

Inquiry: Check if growth inhibition >= 30% (inclusive). Item: Nc1cc(F)cc2c1-c1ccc(F)cc1C2
Reply text: not satisfied

Inquiry: Check if growth inhibition >= 30% (inclusive). Item: COc1cc(N)ccc1Nc1c2ccccc2nc2ccccc12
Reply text: satisfied

Inquiry: Check if growth inhibition >= 30% (inclusive). Item: S=c1[nH]nc(-c2ccc(Cl)cc2)s1
Reply text: satisfied

Inquiry: Check if growth inhibition >= 30% (inclusive). Item: O/N=C/C1c2ccccc2-c2ccccc21
Reply text: not satisfied

Inquiry: Check if growth inhibition >= 30% (inclusive). Item: CN=C(N)N/N=C(\C)c1ccc2oc3ccc(/C(C)=N/NC(N)=NC)cc3c2c1
Reply text: satisfied

Inquiry: Check if growth inhibition >= 30% (inclusive). Item: S=c1nc(Cl)cc2[nH]c(Cl)cn12
Reply text: not satisfied

Inquiry: Check if growth inhibition >= 30% (inclusive). Item: C=C1N(C)c2ccc(Cl)cc2C1(C)C
Reply text: satisfied

Inquiry: Check if growth inhibition >= 30% (inclusive). Item: O=[N+]([O-])c1cc(S(=O)(=O)Nc2ccccc2)ccc1Cl
Reply text: satisfied

Inquiry: Check if growth inhibition >= 30% (inclusive). Item: N#CC(=S)Nc1cccc(Cl)c1
Reply text: satisfied

Inquiry: Check if growth inhibition >= 30% (inclusive). Item: CN(C)c1ccc(N=Nc2ccccn2)cc1
Reply text: satisfied

Inquiry: Check if growth inhibition >= 30% (inclusive). Item: CCCCC(=O)c1c(O)nc2sccn2c1=O
Reply text: satisfied

Inquiry: Check if growth inhibition >= 30% (inclusive). Item: C/C=C/[P+](c1ccccc1)(c1ccccc1)c1ccccc1
Reply text: satisfied

Inquiry: Check if growth inhibition >= 30% (inclusive). Item: CC1=CCC(C(C)(C)c2ccc(O)cc2)CC1 (stereo not given)
Reply text: satisfied

Inquiry: Check if growth inhibition >= 30% (inclusive). Item: COC(=O)c1ccc2c(c1)Cc1ccccc1-2
Reply text: not satisfied

Inquiry: Check if growth inhibition >= 30% (inclusive). Item: CSc1s[s+]c(SC)c1-c1ccccc1
Reply text: satisfied

Inquiry: Check if growth inhibition >= 30% (inclusive). Item: N#C/C(=C1C=C/C(=N/O)c2ccccc2/1)c1ccccc1
Reply text: satisfied

Inquiry: Check if growth inhibition >= 30% (inclusive). Item: COC(=O)CSc1nnc(CSc2ccc(Cl)cc2)n1-c1ccccc1
Reply text: not satisfied

Inquiry: Check if growth inhibition >= 30% (inclusive). Item: S=c1[nH]c2c(Cl)c(Cl)c(Cl)c(Cl)c2[nH]1
Reply text: not satisfied

Inquiry: Check if growth inhibition >= 30% (inclusive). Item: Cc1onc(-c2ccccc2Cl)c1C1=N/C(=C/c2cc(Cl)cc(Cl)c2O)C(=O)O1
Reply text: satisfied
